Values were extracted from patent US20050038229A1.

biological target: T1, tumor necrosis factor-α (TNF-α) (human, UniProt P01375 77-233, biotinylated with NHS-LC-LC-Biotin in the Kd and fluorescence assays; coupled to Epoxy-Activated Sepharose 6B in the column assays); assay: 35S free protein + biotin-TNF-α, capture membrane, equilibrium fit
T1 construct: Bought from Pepro Tech; also called biotin-TNF-α; biotinylated TNF-α
T1 sequence (P01375 77-233 limits assumed): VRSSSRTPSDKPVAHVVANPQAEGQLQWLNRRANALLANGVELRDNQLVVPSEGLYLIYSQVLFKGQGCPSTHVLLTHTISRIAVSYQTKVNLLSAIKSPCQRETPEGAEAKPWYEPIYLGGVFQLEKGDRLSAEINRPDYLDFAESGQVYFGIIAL
measured-endpoint: pKd
Please express pKd as -log10 of the molar concentration.

M12.04 (designed binder, FG loop cell holds only HRDT) VSDVPGDLEVVAATPTSLLIGWSMTPNWPRYYRIAYGETGGDSPVQEFTVPPWASIAIIGGLKPGVDYTITVYAVTHRDTPISINYRT = 10.70
M12.24 (designed binder) VSDVPRDLEVVAATPTSRLISWNRSGLQSGYYRITYGETGGNSPVQEFTVPPWASIATISGLKPGVDYTITVYAVTPNVGRLDTRYPISIDCRT = 8.89
M12.08 (designed binder, BC loop cell holds only II) VSDVPRDLEVVAATPTSLLNVPIIRYYRITYGETGGNSPVQEFTVPAPKAIATTSGLKPGVDYTITVYGVTSHRNHFHVETPISINYQA = 9.22

Okay, next one:
Prompt: Name the recorded pKd of the item T14.02 (designed binder) VSDVPRDLEVVVATPTSQLISWMTPHNHVRYYGITYGETGGNSPVQESTVPTGNATATISGLKPGVDYTITVYAVTPHHGHFDLEPPISINYRT in your answer.
Response: 9.30
